List of composite z-score values.
Experiment: anti-His antibody binders, primary screen, artefact control for SMM control protein annotation, biochemical, small-molecule microarray, 635 nm fluorescence (AID 1128);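 also: score merges feature fluorescence with signal-to-noise for each printed compound spot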
Settings: anti-His Alexa647 antibody binding, higher = more signal

{"columns": ["molecule", "composite z-score"],
 "data": [
  ["CC(=CC1CCCCC1)[C@@H](NC(=O)c1ccc(C(F)(F)F)cc1)c1ccc(-c2ccccc2)cc1", -0.453],
  ["CCCC[C@H]1OB(O)C[C@H]2C1=C(C)C[C@H]1C(=O)N(Cc3ccccc3)C(=O)[C@H]12", 0.201],
  ["CC(C)C[C@@H]1NC(=O)[C@H]2C[C@@H](C(=O)NCCCCCNC(=O)CS)[C@@H](c3cccc(OCCO)c3)N2C1=O", 2.41],
  ["O=C1C2C=CC(C(O)c3ccc(F)cc3)N(Nc3ccccc3)C2C(=O)N1c1ccccc1 (stereo not drawn)", 1.33],
  ["C=CCNC(=O)[C@@H]1[C@H]2C(=O)O[C@H](c3ccccc3)[C@H](c3ccccc3)N2[C@H](c2ccc(OCCO)cc2)[C@@]12C(=O)Nc1ccccc12", 0.797],
  ["C=C(CCCC)C(=O)CC[C@H](OC(=O)c1cccnc1)c1cccc(OCCO)c1", 0.637],
  ["CC(=O)NCCCC[C@@H]1NC(=O)[C@@H]2C[C@H](C(=O)NCCCCCCNC(=O)CS)[C@H](c3ccc(O)cc3)N2C1=O", 3.39],
  ["CCOC(=O)C1=CCC(C(C)(C)C)N(S(=O)(=O)c2ccc(C)cc2)C1 (stereo not drawn)", 0.992]
]}

---

Test: small-molecule microarray binders of probe aEGFR, primary screen, biochemical, biotinylated probe, 635/667 nm fluorescence (AID 1097);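 also: probe is a biotinylated anti-EGFR antibody binding compounds printed on slides; score combines fluorescence near 667 nm and signal to noise of each spot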
Conditions: higher = more signal
Response key: Fulfilled means composite z-score >= -0.06; Not fulfilled means composite z-score < -0.06.

{"columns": ["compound", "category"],
 "data": [
  ["COCCOC(=O)N1C(=O)[C@@]2(c3cc(C#CC4=CCCCC4)ccc31)[C@H](C(=O)NC[C@H](O)c1ccccc1)[C@H]1C(=O)O[C@H](c3ccccc3)[C@H](c3ccccc3)N1[C@@H]2c1ccc(O)cc1", "Fulfilled"],
  ["Cc1ccccc1C(O)C1C=CC2C(=O)N(C)C(=O)C2N1Nc1ccccc1 (stereo not given)", "Not fulfilled"],
  ["COC(=O)[C@@]1(Cc2ccc(F)cc2)[C@H]2c3cc(C(=O)N4CCCC4)n(Cc4cccc5ccccc45)c3C[C@H]2CN1C(=O)c1ccccc1", "Fulfilled"],
  ["C#CCN(C(/C=C/c1ccccc1)CO)C(C(=O)O)c1ccccc1 (stereo not given)", "Not fulfilled"],
  ["O=C(CS)NCCCCCCNC(=O)[C@H]1C[C@H]2C(=O)NCC(=O)N2[C@H]1c1ccc(O)cc1", "Not fulfilled"],
  ["CCCC[C@@H]1C[C@H]1[C@@H](NC(=O)c1ccc(-c2ccccc2)cc1)c1ccc(-c2ccccc2)cc1", "Not fulfilled"],
  ["COC(=O)C[C@H]1O[C@]2(C(=O)N(Cc3ccccc3)c3ccc(NC(C)=O)cc32)[C@@H](C)[C@@H]1[Si](C)(C)c1ccc(OC)cc1", "Not fulfilled"],
  ["C=CCOC(=O)[C@H]1[C@@H]2C(=O)O[C@@H](c3ccccc3)[C@@H](c3ccccc3)N2[C@@H](c2ccc(OCCOC(=O)[C@@H]3C[C@@H]4C(=O)NCC(=O)N4[C@@H]3c3ccc(O)cc3)cc2)[C@]12C(=O)Nc1ccccc12", "Not fulfilled"],
  ["O=C(CS)NCCCCCCNC(=O)[C@H]1C[C@H]2C(=O)N3CCC[C@H]3C(=O)N2[C@H]1c1cccc(OCCO)c1", "Fulfilled"],
  ["Cc1ccc(S[C@]2(C(=O)NC3CC3)CC(=O)N(C3CCCCC3)[C@@H]2c2ccc(CO)cc2I)cc1", "Not fulfilled"],
  ["Cc1ccc(S[C@]2(C(=O)NCc3ccccc3)CC(=O)N(Cc3ccccc3Cl)[C@@H]2c2ccc(CO)cc2I)cc1", "Not fulfilled"],
  ["COc1ccc(C(O)C2C=CC3C(=O)N(c4ccccc4)C(=O)C3N2Nc2ccc([N+](=O)[O-])cc2)cc1OCc1ccccc1 (stereo not given)", "Fulfilled"],
  ["COc1ccc([Si](C)(C)[C@@H]2[C@@H](CC(=O)N3CCC[C@H]3CO)O[C@]3(C(=O)N(C)c4c(Br)cc(C)cc43)[C@H]2C)cc1", "Not fulfilled"],
  ["CC(C)OC(=O)CC(=O)CC(O)c1ccc(C#N)cc1 (stereo not given)", "Fulfilled"],
  ["CN1C(=O)C2C(C1=O)C1C=C(CCCO)C2C(c2cccs2)N1C (stereo not given)", "Not fulfilled"]
]}

Source: PubChem BioAssay
